Source listed as the supplement of paper PMC11061612.

system: PA-TU-8902 (Pancreatic Carcinoma); experiment: Bliss excess, mean over the matrix (fraction); higher = more synergy;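 note: after 72 h of two-drug dosing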
Value type: Bliss excess
No unit in the answer, only the number.

>  <Molecule>
Cn1cnc2c(F)c(Nc3ccc(Br)cc3Cl)c(C(=O)NOCCO)cc21 [Selumetinib] + CCN(CCO)CCCOc1ccc2c(Nc3cc(CC(=O)Nc4cccc(F)c4)[nH]n3)ncnc2c1 [AZD2811] (first compound max 10 µM, 7x7, partner max 1 µM)

>  <System tested>
PA-TU-8902 (Pancreatic Carcinoma);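 note: after 72 h of two-drug dosing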

>  <Bliss excess>
0.0087

$$$$
>  <Molecule>
Cc1cc2ncnn2cc1Nc1ncc2c(n1)n(C1CCOCC1)c(=O)n2C [AZD7648] + CN(C)CCCOc1ccc(-c2ccc3ncc4c(c3c2)n(C2CCOCC2)c(=O)n4C)cn1 [AZD0156] (first compound max 10 µM, 7x7, partner max 1 µM)

>  <System tested>
PA-TU-8902 (Pancreatic Carcinoma);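 note: after 72 h of two-drug dosing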

>  <Bliss excess>
-0.0013

$$$$
>  <Molecule>
C[C@@H]1COCCN1c1cc(C2([S@](C)(=N)=O)CC2)nc(-c2ccnc3[nH]ccc23)n1 [AZD6738] + O=C(c1cc(Cc2n[nH]c(=O)c3ccccc23)ccc1F)N1CCN(C(=O)C2CC2)CC1 [Olaparib] (first compound max 10 µM, 7x7, partner max 10 µM)

>  <System tested>
PA-TU-8902 (Pancreatic Carcinoma);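 note: after 72 h of two-drug dosing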

>  <Bliss excess>
-0.0251

$$$$

In the following, a different molecule is considered.
In: Field request: Bliss excess | item: Cc1c2c(nn1C)CSCc1cc(n(C)n1)CSc1cc(c3ccccc3c1)OCCCc1c(C(=O)O)n(C)c3c-2c(Cl)ccc13 [AZD5991] + C1CN(CCC1(C(=O)N[C@@H](CCO)C2=CC=C(C=C2)Cl)N)C3=NC=NC4=C3C=CN4 [Capivasertib] (first compound max 1 µM, 7x7, partner max 3 µM)
Out: -0.041
